- MEASURED_TARGET: T1, human IL-1α (human, UniProt P01583 113-271)
- T1 construct: also called IL-1alpha; hIL-1α
- T1 sequence (looked up): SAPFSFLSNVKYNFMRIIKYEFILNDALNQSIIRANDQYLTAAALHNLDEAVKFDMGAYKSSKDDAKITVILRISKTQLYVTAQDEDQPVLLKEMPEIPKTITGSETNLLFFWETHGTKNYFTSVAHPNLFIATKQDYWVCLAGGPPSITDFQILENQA
- EXPERIMENT_NOTES: Table 62 IC50; RBA presumed
pIC50: −log10 of the molar value.
METRIC_NAME: pIC50

Here is how some binders turned out for pIC50.
ABT1-95-106 (other, VK dAb) VL: DIQMTQSPSSLSASVGDRVTITCRASQPIVRNLRWYQQKPGKAPKLLIYSSSYLERGVPSRFSGSGSGTDFTLTISSLQPEDFATYHCQQGYRWPVAFGQGTKVEIKR; 10.00
ABT1-95-120 (other, VK dAb) VL: DIQMTQSPSSLSASVGDRVTITCRASQPIARNLRWYQQKPGKAPKLLIYSSSYLEPGVPSRFSGSGSGTDFTLTISSLQPEDFATYHCQQVYRWPVTFGQGTKVEIKR; 10.00
ABT1-95-122 (other, VK dAb) VL: DIQMTQSPSSLSASVGDRVTITCRASQPIVRNLRWYQQKPGKAPKLLIYSSSYLEPGVPSRFSGSGSGTDFILTISSLQPEDFATYHCQQGYRWPVTFGQGTKVEIKR; 10.00
ABT1-122 (other, VK dAb) VL: DIQMTQSPSSLSASVGDRVTITCRASQPIWTELNWYQQKPGKAPKLLIYGSSSLQSGVPSRFSGSGSGTDFTLTISSLQPEDFATYYCQQFAYFPATFGQGTKVEIKR; 7.10

(A) ABT1-141-18 (other, VK dAb) VL: DIQMTQSPSSLSASVGDRVTITCRASQWIQKQLAWYQQKPGKVPKLLIYSSSYLQSGVPSRFSGSGSGTDFTLTISSLQPEDFATYYCQQHLRVPFTFGQGTKVEIKR
(B) ABT1-95-94 (other, VK dAb) VL: DIQMTQSPSSLSASVGDRVTITCRASQPIVRNLRWYQQKPGKAPKLLIYSSSSLEPGVPSRFSGSGSGTDFTLTISSLQPEDFATYHCQQGYRWPVTFGQGTKVEIKR
Given the listed records, identify the one among A and B with higher pIC50. // respond with label for picked entry
B
